Task for the reader: assign each of the following compounds its reported EC50.
Biological target: LXRβ ligand-binding domain (Homo sapiens, UniProt P55055, DUP175-175)
Construct: amino acids 156-461; NP009052; made in house; host or cells: E. coli
Sequence (P55055 with tags, fused parts or gaps DUP175-175 limits assumed): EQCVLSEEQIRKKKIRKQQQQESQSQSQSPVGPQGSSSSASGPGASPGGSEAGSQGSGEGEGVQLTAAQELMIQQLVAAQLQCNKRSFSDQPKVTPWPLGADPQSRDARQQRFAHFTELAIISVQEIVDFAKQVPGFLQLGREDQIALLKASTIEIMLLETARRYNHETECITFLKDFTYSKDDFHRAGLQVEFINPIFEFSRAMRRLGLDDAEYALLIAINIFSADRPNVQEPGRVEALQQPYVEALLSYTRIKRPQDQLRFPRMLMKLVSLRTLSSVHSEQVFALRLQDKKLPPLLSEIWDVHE
Test: TR-FRETβ activity assay (NCoA3 coactivator peptide recruitment)
Type: biochemical
Conditions: TR-FRET, 1 μM 24(S)-25-epoxycholesterol prestimulation; read-out: FRETβ (EC50 range)

Exam item: Recall the reported EC50 of COc1ccc(S(=O)(=O)n2c(-c3ccccc3)c(C3=C(C#N)CCCC3)c3ccccc32)cc1 when tested on LXRβ ligand-binding domain (Homo sapiens, UniProt P55055, DUP175-175).
Marked response: 1000 to 10000 nM

Exam item: Recall the reported EC50 of O=C(O)c1ccc(-c2cccc(-c3c(-c4c(C(F)F)cccc4C(F)F)c4cc(F)ccc4n3S(=O)(=O)c3ccc(C(F)F)cc3)c2)c(Cl)c1 when tested on LXRβ ligand-binding domain (Homo sapiens, UniProt P55055, DUP175-175).
Marked response: < 100 nM

Exam item: Recall the reported EC50 of Cc1ccc(S(=O)(=O)n2c(-c3cccc(C4CC4C(=O)O)c3)c(-c3ccsc3F)c3ccccc32)cc1 (stereo not drawn) when tested on LXRβ ligand-binding domain (Homo sapiens, UniProt P55055, DUP175-175).
Marked response: 1000 to 10000 nM

Exam item: Recall the reported EC50 of N#Cc1cccc(C#N)c1-c1c(-c2cccc(-c3c(F)c(F)c(C(=O)O)c(F)c3F)c2)n(S(=O)(=O)c2ccc(C(F)F)cc2)c2ccc(F)cc12 when tested on LXRβ ligand-binding domain (Homo sapiens, UniProt P55055, DUP175-175).
Marked response: < 100 nM

Exam item: Recall the reported EC50 of COc1sccc1-c1c(-c2cccc(N3CC(C(=O)O)C3)c2)n(S(=O)(=O)c2ccc(C)cc2)c2ccc(F)cc12 when tested on LXRβ ligand-binding domain (Homo sapiens, UniProt P55055, DUP175-175).
Marked response: 1000 to 10000 nM

Exam item: Recall the reported EC50 of Cc1ccc(S(=O)(=O)n2c(-c3cccc(-c4ccc(C(=O)O)cc4Cl)c3)c(-c3cc(C)ccc3C#N)c3cc(F)ccc32)cc1 when tested on LXRβ ligand-binding domain (Homo sapiens, UniProt P55055, DUP175-175).
Marked response: < 100 nM

Exam item: Recall the reported EC50 of NC(=O)c1sccc1-c1c(-c2cccs2)n(S(=O)(=O)c2ccc(Cl)cc2)c2ccccc12 when tested on LXRβ ligand-binding domain (Homo sapiens, UniProt P55055, DUP175-175).
Marked response: 1000 to 10000 nM

Exam item: Recall the reported EC50 of CS(=O)(=O)c1ccccc1-c1c(-c2cccs2)n(S(=O)(=O)c2ccc(Cl)cc2)c2ccccc12 when tested on LXRβ ligand-binding domain (Homo sapiens, UniProt P55055, DUP175-175).
Marked response: 1000 to 10000 nM

Exam item: Recall the reported EC50 of N#Cc1cccc(C#N)c1-c1c(-c2cccc(-c3c(F)cc(C(=O)O)cc3F)c2)n(S(=O)(=O)c2ccc(C(F)F)cc2)c2ccc(F)cc12 when tested on LXRβ ligand-binding domain (Homo sapiens, UniProt P55055, DUP175-175).
Marked response: < 100 nM

Exam item: Recall the reported EC50 of Cc1ccc(S(=O)(=O)n2c(-c3cccc(N4CC(C(=O)O)C4)c3)c(-c3ccsc3C#N)c3cc(F)c(F)cc32)cc1 when tested on LXRβ ligand-binding domain (Homo sapiens, UniProt P55055, DUP175-175).
Marked response: 1000 to 10000 nM

Exam item: Recall the reported EC50 of N#Cc1ccccc1-c1c(-c2cccc(-c3ccc(C(=O)O)cc3Cl)c2)n(S(=O)(=O)c2ccc(C(F)F)cc2)c2cnccc12 when tested on LXRβ ligand-binding domain (Homo sapiens, UniProt P55055, DUP175-175).
Marked response: < 100 nM

Exam item: Recall the reported EC50 of Cc1ccc(S(=O)(=O)n2c(-c3cccc(N4CC(C(=O)O)C4)c3)c(-c3ccsc3/C=N/O)c3cc(F)ccc32)cc1 when tested on LXRβ ligand-binding domain (Homo sapiens, UniProt P55055, DUP175-175).
Marked response: 1000 to 10000 nM

Exam item: Recall the reported EC50 of N#Cc1ccccc1-c1c(-c2cccc(-c3ccc(C(=O)O)c(O)c3Cl)c2)n(S(=O)(=O)c2ccc(C(F)F)cc2)c2ccc(F)cc12 when tested on LXRβ ligand-binding domain (Homo sapiens, UniProt P55055, DUP175-175).
Marked response: < 100 nM

Exam item: Recall the reported EC50 of N#Cc1cccc(C#N)c1-c1c(-c2cccc([C@H]3CC[C@H](C(=O)O)CC3)c2)n(S(=O)(=O)c2ccc(C(F)F)cc2)c2ccc(F)cc12 when tested on LXRβ ligand-binding domain (Homo sapiens, UniProt P55055, DUP175-175).
Marked response: 100 to 1000 nM

Exam item: Recall the reported EC50 of N#Cc1sccc1-c1c(-c2cncs2)n(S(=O)(=O)c2ccc(Cl)cc2)c2ccccc12 when tested on LXRβ ligand-binding domain (Homo sapiens, UniProt P55055, DUP175-175).
Marked response: 1000 to 10000 nM

Exam item: Recall the reported EC50 of O=C(O)c1ccc(-c2cccc(-c3c(-c4cccc5c4OCO5)c4cc(F)ccc4n3S(=O)(=O)c3ccc(C(F)F)cc3)c2)c(Cl)c1 when tested on LXRβ ligand-binding domain (Homo sapiens, UniProt P55055, DUP175-175).
Marked response: < 100 nM

Exam item: Recall the reported EC50 of O=S(=O)(c1ccc(Cl)cc1)n1c(-c2cccs2)c(-c2ccsc2C(F)F)c2ccccc21 when tested on LXRβ ligand-binding domain (Homo sapiens, UniProt P55055, DUP175-175).
Marked response: 100 to 1000 nM

Exam item: Recall the reported EC50 of Cc1ccc(S(=O)(=O)n2c(-c3cccc(-n4ccc(C(=O)O)cc4=O)c3)c(-c3ccsc3C#N)c3cc(F)ccc32)cc1 when tested on LXRβ ligand-binding domain (Homo sapiens, UniProt P55055, DUP175-175).
Marked response: 100 to 1000 nM

Exam item: Recall the reported EC50 of N#Cc1cccc(C#N)c1-c1c(-c2cccc(-c3ccc(C(=O)O)cc3Cl)c2)n(S(=O)(=O)c2ccc(C(F)F)cc2)c2ccccc12 when tested on LXRβ ligand-binding domain (Homo sapiens, UniProt P55055, DUP175-175).
Marked response: < 100 nM

Exam item: Recall the reported EC50 of N#Cc1cccc(C#N)c1-c1c(-c2cccc(-c3ccc(C(=O)NCCS(=O)(=O)O)cc3Cl)c2)n(S(=O)(=O)c2ccc(C(F)F)cc2)c2ccc(F)cc12 when tested on LXRβ ligand-binding domain (Homo sapiens, UniProt P55055, DUP175-175).
Marked response: < 100 nM

Exam item: Recall the reported EC50 of N#Cc1sccc1-c1c(-c2cc(Cl)cc(C3CC3C(=O)O)c2)n(S(=O)(=O)c2ccc(Cl)cc2)c2ccccc12 (stereo not drawn) when tested on LXRβ ligand-binding domain (Homo sapiens, UniProt P55055, DUP175-175).
Marked response: 1000 to 10000 nM

Exam item: Recall the reported EC50 of Cc1ccc(S(=O)(=O)n2c(-c3cccc(-c4ccc(C(=O)O)cc4)c3)c(-c3ccsc3C#N)c3cc(F)ccc32)cc1 when tested on LXRβ ligand-binding domain (Homo sapiens, UniProt P55055, DUP175-175).
Marked response: 100 to 1000 nM

Exam item: Recall the reported EC50 of O=C(O)c1ccc(-c2cccc(-c3c(-c4cccc5oncc45)c4cc(F)ccc4n3S(=O)(=O)c3ccc(C(F)F)cc3)c2)c(Cl)c1 when tested on LXRβ ligand-binding domain (Homo sapiens, UniProt P55055, DUP175-175).
Marked response: 100 to 1000 nM

Exam item: Recall the reported EC50 of Cc1ccc(S(=O)(=O)n2c(-c3cccc(-c4ccc(C(=O)NCCS(=O)(=O)O)cc4Cl)c3)c(-c3ccsc3C#N)c3cc(F)ccc32)cc1 when tested on LXRβ ligand-binding domain (Homo sapiens, UniProt P55055, DUP175-175).
Marked response: 100 to 1000 nM

Exam item: Recall the reported EC50 of N#Cc1sccc1-c1c(-c2cccs2)n(S(=O)(=O)c2ccc(Cl)cc2)c2cc(OCC(=O)O)ccc12 when tested on LXRβ ligand-binding domain (Homo sapiens, UniProt P55055, DUP175-175).
Marked response: > 10000 nM

Exam item: Recall the reported EC50 of Cc1ccc(S(=O)(=O)n2c(-c3cccc(C4(C)CC4C(=O)O)c3)c(-c3ccsc3C#N)c3cc(F)ccc32)cc1 (stereo not drawn) [3/2] when tested on LXRβ ligand-binding domain (Homo sapiens, UniProt P55055, DUP175-175).
Marked response: 1000 to 10000 nM

Exam item: Recall the reported EC50 of N#Cc1sccc1-c1c(-c2cccs2)n(S(=O)(=O)c2ccc(Cl)cc2)c2ccc(OCCCC(=O)O)cc12 when tested on LXRβ ligand-binding domain (Homo sapiens, UniProt P55055, DUP175-175).
Marked response: 1000 to 10000 nM

Where do the numbers come from? From patent US11618747B2.
